conditions: in n-propanol, 318.15 K
MEASURE_NAME: solubility (mole fraction)
# print the numeric value only

Q: Let me know recorded solubility (mole fraction) for NC(=O)OCCCc1ccccc1 , thanks.
Ans: 0.0771

###

settings: in n-propanol, 293.15 K
MEASURE_NAME: solubility (mole fraction)

Q: Let me know recorded solubility (mole fraction) for NC(=O)OCCCc1ccccc1 , thanks.
Ans: 0.0219

###

settings: in methanol, 308.15 K
MEASURE_NAME: solubility (mole fraction)
# print the numeric value only

Q: Let me know recorded solubility (mole fraction) for NC(=O)OCCCc1ccccc1 , thanks.
Ans: 0.0614

###

conditions: in isopropanol, 318.15 K
MEASURE_NAME: solubility (mole fraction)
# print the numeric value only

Q: Let me know recorded solubility (mole fraction) for NC(=O)OCCCc1ccccc1 , thanks.
Ans: 0.0769
